Value source: paper PMC12207370

- experimental-system: rILYd4 (Streptococcus intermedius, UniProt Q9LCB8 1-532)
- procedure-text: SPR

>  <binder>
CD59 (immobilized for SPR) (receptor) LQCYNCPNPTADCKTAVNCSSDFDACLITKAGLQVYNKCWKFEHCNFNDVTTRLRENELTYYCCKKDLCNFNEQLEN

>  <Kd, nM>
48.3

$$$$
